Data origin: ChEMBL document CHEMBL2016440

Tested on: Candida albicans
Experiment: Antifungal activity against fluconazole-resistant Candida albicans isolate 2 assessed as growth inhibition after 48 hrs by alamar blue fluorescence assay in presence of 8 ug/ml fluconazole
Type: functional, organism-based
Settings: isolate 2, 48 h
experimental_readout: pIC50
Give bare numbers, as −log10 of the molar value.

- mol: "O=C(Cn1c2ccccc2c2nc3n(c(=O)c21)CCS3)N1CC=CC1"
  study_target: "Candida albicans"
  pIC50: 5.74
- mol: "CC1CCN(C(=O)Cn2c3ccc(F)cc3c3nc4n(c(=O)c32)CCCS4)CC1"
  study_target: "Candida albicans"
  pIC50: 5.57
- mol: "O=C(Cn1c2ccc(F)cc2c2nc3n(c(=O)c21)CCS3)N1CCCCCC1"
  study_target: "Candida albicans"
  pIC50: 5.66
- mol: "O=C(Cn1c2ccc(F)cc2c2nc3n(c(=O)c21)CCS3)N1CCC(F)(F)CC1"
  study_target: "Candida albicans"
  pIC50: 6.15
- mol: "O=C(Cn1c2ccc(F)cc2c2nc3n(c(=O)c21)CCS3)N1CCC(F)(F)C1"
  study_target: "Candida albicans"
  pIC50: 5.96

Give pIC50 for each listed item.
1. COC(=O)Cn1c2ccc(F)cc2c2nc3n(c(=O)c21)CCS3
2. COC(=O)Cn1c2ccccc2c2nc3n(c(=O)c21)CCS3
3. O=C(Cn1c2ccccc2c2nc3n(c(=O)c21)CCS3)N1CCOCC1
4. CN1CCN(C(=O)Cn2c3ccccc3c3nc4n(c(=O)c32)CCS4)CC1
5. CCN(CC)C(=O)Cn1c2ccccc2c2nc3n(c(=O)c21)CCS3
6. Oc1c2nc3ccc(F)cc3c-2nc2n1CCS2
7. CC1CCN(C(=O)Cn2c3ccccc3c3nc4n(c(=O)c32)CCS4)CC1
8. O=C(Cn1c2ccc(F)cc2c2nc3n(c(=O)c21)CCS3)N1CC=CC1

Ans:
1. 5.46
2. 5.10
3. 5.37
4. 5.15
5. 5.64
6. 5.42
7. 5.49
8. 6.30

Give pIC50 for each listed item.
1. O=C(Cn1c2ccccc2c2nc3n(c(=O)c21)CCS3)N1CCCCC1
2. CCN(CC)C(=O)Cn1c2ccc(F)cc2c2nc3n(c(=O)c21)CCS3

Ans:
1. 5.72
2. 6.30
